measurement_target: Glutamate NMDA receptor; Grin1/Grin2a (Rattus norvegicus) (UniProt P35439+Q00959)
assay_notes: Antagonist activity at rat GluN1A/GluN2A receptor expressed in Xenopus laevis oocytes assessed as inhibition of glutamate/glycine-induced channel current at 500 nM at -70 mV holding potential by two electrode voltage clamp method relative to TCN-201
Type: cell-based
Listed compounds paired with reported fold change (FC)

- input_smiles: "O=C(NNC(=O)c1ccc(CNS(=O)(=O)c2cccc(Cl)c2)cc1)c1ccccc1"
  measurement_target: "Glutamate NMDA receptor; Grin1/Grin2a (Rattus norvegicus) (UniProt P35439+Q00959)"
  fold change (FC): 1.21
- input_smiles: "N#Cc1cccc(S(=O)(=O)NCc2ccc(C(=O)NNC(=O)c3ccccc3)cc2)c1"
  measurement_target: "Glutamate NMDA receptor; Grin1/Grin2a (Rattus norvegicus) (UniProt P35439+Q00959)"
  fold change (FC): 0.151
- input_smiles: "O=C(NNC(=O)c1ccc(CNS(=O)(=O)c2cccs2)cc1)c1ccccc1"
  measurement_target: "Glutamate NMDA receptor; Grin1/Grin2a (Rattus norvegicus) (UniProt P35439+Q00959)"
  fold change (FC): 0.529
- input_smiles: "O=C(NNC(=O)c1ccc(CNS(=O)(=O)c2cccc(I)c2)cc1)c1ccccc1"
  measurement_target: "Glutamate NMDA receptor; Grin1/Grin2a (Rattus norvegicus) (UniProt P35439+Q00959)"
  fold change (FC): 1.19
- input_smiles: "O=C(NNC(=O)c1ccc(CNS(=O)(=O)c2cccc(F)c2)cc1)c1ccccc1"
  measurement_target: "Glutamate NMDA receptor; Grin1/Grin2a (Rattus norvegicus) (UniProt P35439+Q00959)"
  fold change (FC): 0.818
- input_smiles: "O=C(NNC(=O)c1ccc(CNS(=O)(=O)c2ccc(Br)cc2)cc1)c1ccccc1"
  measurement_target: "Glutamate NMDA receptor; Grin1/Grin2a (Rattus norvegicus) (UniProt P35439+Q00959)"
  fold change (FC): 0.315
